Answer each item with its documented pIC50.
Molecular target: human TLR9 (Homo sapiens)
Sequence (Q9NR96 26-1032): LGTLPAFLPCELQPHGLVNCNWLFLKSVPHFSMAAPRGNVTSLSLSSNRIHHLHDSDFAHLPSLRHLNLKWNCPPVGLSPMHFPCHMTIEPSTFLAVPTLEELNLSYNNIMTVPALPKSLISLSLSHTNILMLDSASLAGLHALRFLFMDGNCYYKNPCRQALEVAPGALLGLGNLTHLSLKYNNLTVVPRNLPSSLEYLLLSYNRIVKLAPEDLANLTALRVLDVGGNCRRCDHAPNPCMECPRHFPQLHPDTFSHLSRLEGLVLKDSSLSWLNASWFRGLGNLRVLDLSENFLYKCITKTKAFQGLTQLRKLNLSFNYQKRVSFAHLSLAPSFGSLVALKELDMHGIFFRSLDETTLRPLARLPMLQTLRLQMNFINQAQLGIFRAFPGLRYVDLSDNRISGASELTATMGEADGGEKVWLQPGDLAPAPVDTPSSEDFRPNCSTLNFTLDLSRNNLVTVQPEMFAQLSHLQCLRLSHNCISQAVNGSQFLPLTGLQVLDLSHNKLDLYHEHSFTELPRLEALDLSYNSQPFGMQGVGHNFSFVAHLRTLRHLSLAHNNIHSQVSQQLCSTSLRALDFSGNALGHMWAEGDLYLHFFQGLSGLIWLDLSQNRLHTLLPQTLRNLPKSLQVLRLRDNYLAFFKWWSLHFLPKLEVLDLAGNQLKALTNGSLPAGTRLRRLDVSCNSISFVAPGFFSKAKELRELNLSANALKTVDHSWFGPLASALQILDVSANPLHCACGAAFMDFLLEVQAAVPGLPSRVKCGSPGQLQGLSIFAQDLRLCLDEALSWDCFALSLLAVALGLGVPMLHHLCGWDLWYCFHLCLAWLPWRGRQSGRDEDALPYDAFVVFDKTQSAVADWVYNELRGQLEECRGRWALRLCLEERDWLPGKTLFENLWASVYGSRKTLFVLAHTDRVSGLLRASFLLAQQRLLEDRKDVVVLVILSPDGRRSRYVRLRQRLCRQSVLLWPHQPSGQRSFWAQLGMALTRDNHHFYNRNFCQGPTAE
Experiment: TLR9 inhibition reporter assay (HEK-Blue cells, SEAP reporter, ODN2006 stimulation)
Settings: HEK-Blue cells overexpressing human TLR9, SEAP reporter, ODN2006 5 nM
Text: TLR7/8/9 Inhibition Reporter Assays HEK-Blue™-cells (Invivogen) overexpressing human TLR7, TLR8 or TLR9 receptors were used for screening inhibitors of these receptors using an inducible SEAP (secreted embryonic alkaline phosphatase) reporter gene under the control of the IFN-β minimal promoter fused to five NF-κB and AP-1-binding sites. […]
Numbers only, as −log10 of the molar value.

Recorded pIC50, per entry:
Give pIC50 for this entry on human TLR9 (Homo sapiens): Cc1cc(-c2[nH]nc(C(=O)NC3CCC(N(C)C)CC3)c2C(C)C)cn2ncnc12 (stereo not shown)
5.26

Give pIC50 for this entry on human TLR9 (Homo sapiens): `Cc1cc(-c2[nH]nc(C(=O)NC3CN(Cc4ncn(C)n4)C3)c2C(C)C)cn2ncnc12`
5.16

Give pIC50 for this entry on human TLR9 (Homo sapiens): `Cc1cc(-c2[nH]nc(C(=O)NC3CCN(C4CCOCC4)CC3)c2CC(F)(F)F)cn2ncnc12`
5.03

Give pIC50 for this entry on human TLR9 (Homo sapiens): Cc1cc(-c2[nH]nc(C3CCC(N(C)C(=O)C4CN(C)C4)CC3)c2C(C)C)cn2ncnc12 (stereo not shown) [Example 300]
5.00

Give pIC50 for this entry on human TLR9 (Homo sapiens): `COc1cc(-c2[nH]nc(C(=O)N3CCCN(C)CC3)c2C(C)C)cn2ncnc12`
5.88

Give pIC50 for this entry on human TLR9 (Homo sapiens): `Cc1cc(-c2[nH]nc(C(=O)NC3CCNCC3)c2CC(F)(F)F)cn2ncnc12`
5.04

Lab note: each compound below needs its pIC50 filled in.
1. COc1cc(-c2[nH]nc(C(=O)NC3CCN(C)CC3)c2C(C)C)cn2ncnc12
2. CCN1CCc2nc(-c3n[nH]c(-c4cc(OC)c5ncnn5c4)c3C(C)C)sc2C1
3. Cc1cc(-c2[nH]nc(C(=O)N(C)CCC#N)c2C(C)C)cn2ncnc12
4. Cc1cc(-c2[nH]nc(C(=O)N(C)C3CCN(C)CC3)c2C(C)C)cn2ncnc12
5. Cc1cc(-c2[nH]nc(C(=O)NC3CCN(C4CCOCC4)CC3)c2C(C)C)cn2ncnc12

1: 4.73; 2: 4.77; 3: 4.36; 4: 5.96; 5: 4.65
